Entries and their measured Neut IC50 subtype B follow.
Target: RSV F protein of recombinant mKate-RSV, subtype B (18537) (Respiratory syncytial virus subtype B …, UniProt P13843 26-574)
Assay: cell-based or functional assay

Known Neut IC50 subtype B results, listed for orientation:
ADI-14456 (antibody, V domains shown) VH: QVQLVQSGAEVKKPGASVKVSCEASEYSFSGDYVHWVRQAPGQGLEWMGWIKAVNGGANYAQKFHGRVTMTTDSSKSTVYLEMSRLTPADTAIYFCAKDRAASVHVPAGAFDLWGQGTLVTVSS VL: DIQMTQSPSSLSAYVGDRVSITCRASQSIDNFLNWYRQRPGKAPELLIYAASTLQGGVPSRFSGSGSGTHFTLTISSLQPEDFATYYCQQSFTIPSITFGQGTRLEIK : 0.372 µg/mL
ADI-14453 (antibody, V domains shown, full-length IgG (yeast-expressed); also called Antibody Number 16; Ab# 16) VH: QITLKESGPTVVKPTQTLTLTCTFSGFSLNTRGMGVAWIRQPPGGALEWLALVDWDDDKRYSPSLRSRLTITKDTSKNQVLFTMTTMDPADTATYYCAHIGLYDRGGYYLFYFDFWGQGTLVTVSS VL: DIVLTQSPSSLSASVGDRVTITCRASQSIASYVNWFQQKPGKAPVLLMFASSILQSGVPPRFRGSGSGTDFTLTITSLQPEDFATYYCQHTYTTPYIFGRGTKVEIK : > 10 µg/mL

Pending binder:
Please look up its Neut IC50 subtype B: ADI-14506 (antibody, V domains shown, full-length IgG (yeast-expressed); also called Antibody Number 67; Ab# 67) VH: QVQLVQSGAEVKKPGSSVKVSCKVAGGSFSNYAIAWLRQAPGQGLEWMGGIIPAFNRAMYARKFQDRVTITAYASTTTAYLDITGLRSEDTALYYCARPAGDFGDLKWVRSPFDYWGQGTLITVSS VL: DIVMTQTPGTLSVSPGERATLSCRASQDVGINLAWYQQKPGQAPRLLIYGASTRATDVPAKFSGSGSGTDFTLTISSLQSEDFGVYYCQEYNDWPPQLSFGPGTKVDIK
6.25 µg/mL
